# GI50 per entry
Test system: IGROV-1
Assay: NCI tumour cell line growth inhibition, 48 h
Active and inactive are the calls of the source. Rule as the data show it: active = GI50 up to about 1.1 µM and inactive = higher.
PROPERTY_LABEL: GI50

[[record]]
molecule = "O=C1c2ccccc2C(=O)N1[C@@H](Cc1ccccc1)C(=O)n1cccc1CO"
result = "> 100 µM (inactive)"

[[record]]
molecule = "C#CC(O)/C=C/C(O)CCCC(O)CC#CC(O)C#CC(O)CCCC(O)/C=C/CCCC(=O)CCCCCCCCCCCCCCCC(O)C(O)C#CC(=O)O (stereo not given)"
result = "9.79 µM (inactive)"

[[record]]
molecule = "Cc1ccc(NC(=O)C(=O)Cc2cccc[n+]2[O-])cc1C"
result = "> 100 µM (inactive)"

[[record]]
molecule = "COC(=O)c1cn(CCCCO)nn1"
result = "> 100 µM (inactive)"

[[record]]
molecule = "COC(=O)C1CCc2nnc(-c3cccnc3)n21 (stereo not given)"
result = "> 100 µM (inactive)"

